Subject of test: Voltage-gated potassium channel subunit beta-2 (Rattus norvegicus)
Assay overview: inhibitors of rat Kvbeta2 reductase activity – biochemical, NADPH fluorescence, primary screen (AID 622);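 note: slope of raw intensity against log time taken from 70 to 1610 s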
Settings: recombinant KvBeta, 4-cyanobenzaldehyde reduction, at 10 µM, stronger effect = higher value
Experimental readout: fluorescence slope
Write the number on its own, no unit after it.

Field: example entries. Status: answers known.
COc1ccc(N(CC(=O)N2CCN(Cc3ccc4c(c3)OCO4)CC2)S(C)(=O)=O)cc1OC: -0.538
CCOC(=O)Nc1sc(=S)n(C)c1C: -0.545
CCOC(=O)N1CCN(S(=O)(=O)c2ccc(Br)s2)CC1: -0.553
Cc1cccc(OCC(=O)N2CCC(c3ccccc3)C2)c1 (stereo unspecified): -0.426
COc1ccc(CCNC(=O)c2cc(-c3cc(C)c(C)cc3O)n[nH]2)cc1OC: -0.444

Then there is this compound:
Tell me the measured fluorescence slope of "Cc1ccc(-n2ncc3c(N4CCN(c5ccc(F)cc5)CC4)ncnc32)c(C)c1" , please.
-0.521

====

Assay overview: endothelial E-selectin expression blockers – imaging, HUVEC, immunofluorescence, MLSMR starter and 10KST1 sets, primary screen (AID 487);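 note: 100% = median nuclei count of all wells on the same plate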
Settings: HUVEC TNFalpha-induced E-selectin immunofluorescence imaging, at 2 µM; measured here: cell number, toxicity
Experimental readout: nuclei count (%)
Respond numerically; units are % and should not be typed.

Example entries begin here.
CCCSC1=C(C#N)C(c2ccccc2OCC)CC(=O)N1 (centres undefined): 95
CCn1c(=O)cc(SCC(=O)N2CCOCC2)c2ccccc21: 120
CCC1(CC)C(=O)C(C)(C)C(=O)OC1c1cccs1 (centres undefined): 110

// returns reported nuclei count for input "CCOC(=O)c1c(NC(=O)OC)sc(C(=O)N(C)C)c1C"
115

Data request, read-out nuclei count, for O=C(COC(=O)C1(c2ccccc2F)CCCC1)NC1CCS(=O)(=O)C1 (centres undefined)
106

What does the data say about its nuclei count? Entry: "CNC(=O)c1c(O)c2cccc3c2n(c1=O)CC3"
99

Entry under review: "O=C(c1ccc(Cl)c(Cl)c1)N1CCOCC1" . Reported nuclei count?
105

What measured nuclei count goes with "O=C(O)c1ccc(-n2nnnc2Oc2ccccc2C(=O)N2CCOCC2)cc1" ?
89.9

Quick one: nuclei count for "CC(C)(C)c1ccccc1NC(=O)c1cccnc1" ?
89.7

Query (compound): COc1cc(C(=O)N2c3ccccc3CC2C)cc(OC)c1OC (centres undefined) ; field requested: nuclei count
113

Give its nuclei count value. Item: "Cc1cccc(N(CC(N)=O)S(C)(=O)=O)c1C"
122

If you can, please state the reported nuclei count value of CCOC(=O)N1CCC(N(C(=O)Nc2ccc(Cl)c(Cl)c2)C(C)CC)CC1 (centres undefined) .
118

I'd like to know its nuclei count. The compound in question is "COc1ccc(CCNC(=O)c2nc3ncccn3n2)cc1OC"
100

====

Subject of test: Dual specificity protein phosphatase 6 (Homo sapiens)
Assay overview: Primary imaging screen for DUSP6 inhibitors that restore phospho-Erk in transfected HeLa cells, chemical complementation (AID 609);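 note: phospho-Erk level distribution per well compared with pooled transfected vehicle control wells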
Settings: HeLa MKP-3 transfected, phospho-Erk imaging KS statistic; at 10 µM; stronger effect = higher value; cells stimulated with TPA for 15 min
Reported inhibition is given for each of the following molecules.
Dear colleague, please return just the value in %, with no unit written.

Find the recorded inhibition belonging to OC(CCN1CCCCC1)(c1ccccc1)C1CCCCC1 (configuration not stated) and report it.
21.2

====

Subject of test: Voltage-gated potassium channel subunit beta-2 (Rattus norvegicus)
Assay overview: enhancers of rat Kvbeta2 NADPH turnover – biochemical, NADPH fluorescence, primary screen (AID 623);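 note: fluorescence intensity change per second fitted from 20 to 320 s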
Settings: Recombinant KvBeta, NADPH fluorescence decrease slope, 10 min; at 10 µM; stronger effect = lower value
Experimental readout: NADPH fluorescence slope
Answer with a number only.

# annotated cases, reported NADPH fluorescence slope shown
Cc1ccccc1C(=O)NC1CCN(CC(=O)Nc2nccs2)CC1: 7.7e-05
COc1cccc(C2=NOC(C(=O)Nc3ccc(C(C)=O)cc3)C2)c1 (stereo unspecified): 2.1e-05
CCN1CCN(C(=O)c2ccc3c(=O)n(C4CCCC4)c(=S)[nH]c3c2)CC1: 6.6e-05
NC(=O)c1oc2ccc(Cl)cc2c1NC(=O)CN1CCOCC1: -5.2e-05
COc1ccccc1C(=O)Nc1ccc(S(=O)(=O)N2CCOCC2)cc1: -5.6e-05

Fill in the blank: the reported NADPH fluorescence slope of "CN(C)S(=O)(=O)c1ccc(S(=O)(=O)Nc2ccc3c(c2)oc2ccccc23)cc1" is ____.
-5.2e-05

Name the reported NADPH fluorescence slope value associated with the compound CCOC(=O)C(Oc1ccc(=O)[nH]n1)C(C)=O (stereo unspecified)
-7.7e-06

Value lookup for NADPH fluorescence slope; key = "NC(=O)c1c(NC(=O)CSc2nnc(-c3ccco3)n2-c2ccccc2)sc2c1CCC2"
0.00013

I have this compound here, "Nc1nc(C(=O)N2CCOCC2)nn1S(=O)(=O)c1ccc(Cl)cc1" , and I need its recorded NADPH fluorescence slope.
-2.7e-05

What does the record list as NADPH fluorescence slope for "Cc1cc(NCCCn2ccnc2)n2c(nc3ccccc32)c1C#N" ?
2e-06

Entry COC(=O)c1ccccc1NC(=O)c1noc2c1CC(C(C)(C)C)CC2 (stereo unspecified) : reported NADPH fluorescence slope = ?
-3.2e-05

====

Each entry below carries its reported inhibition.
Assay overview: TLR3 IRF3 reporter activation blockers – cell-based, poly I:C stimulus, luciferase, 10K MLSCN set, primary screen (AID 602277)
Settings: HEK293-TLR3 RL24 IRF3 luciferase reporter, at 10 µM, stronger effect = higher value
Activity calls are given as the source filed them.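 How the source made its calls: active means inhibition of the reporter signal at or above 50%; inactive means inhibition below 50%.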

# count of solved cases: 3
CN(C)c1nc(N)nc(CSc2nnnn2-c2cccc3ccccc23)n1: 14.8% (inactive)
CC(C)n1c(=NC(=O)c2ccco2)c(C#N)cc2c(=O)n3ccccc3cc21: -8.73% (inactive)
Cn1c(=O)[nH]c(=O)c2c1nc(N1CCNCC1)n2Cc1cccc2ccccc12: 28.8% (inactive)

// query inhibition value for entry "CC(C)(C)c1cc(C(=O)O)nn1-c1ccccc1"
24.6% (inactive)

Entry "C1COC(NC(C2CC2)C2CC2)=N1" has what inhibition?
20.5% (inactive)

Request the reported inhibition associated with "CC1(C)CC(=O)c2cc(OCC(=O)NCCCN3CCN(c4ccccc4F)CC3)ccc2O1"
2.15% (inactive)

====

Subject of test: Muscarinic acetylcholine receptor M4 (Homo sapiens) (UniProt P08173)
Sequence (P08173 whole entry, looked up): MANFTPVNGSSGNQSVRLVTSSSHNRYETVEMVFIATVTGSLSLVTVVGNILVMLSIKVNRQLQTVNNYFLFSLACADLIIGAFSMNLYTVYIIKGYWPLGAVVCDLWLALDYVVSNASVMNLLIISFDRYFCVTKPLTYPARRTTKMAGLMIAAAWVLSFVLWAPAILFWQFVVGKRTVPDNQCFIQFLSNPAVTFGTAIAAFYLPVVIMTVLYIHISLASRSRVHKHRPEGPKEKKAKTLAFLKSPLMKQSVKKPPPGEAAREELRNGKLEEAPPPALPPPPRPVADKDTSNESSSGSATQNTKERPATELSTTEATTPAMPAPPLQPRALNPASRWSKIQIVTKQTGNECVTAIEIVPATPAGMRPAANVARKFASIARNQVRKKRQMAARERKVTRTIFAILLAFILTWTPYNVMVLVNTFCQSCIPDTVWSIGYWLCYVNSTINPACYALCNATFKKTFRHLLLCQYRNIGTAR
Assay overview: M4-linked GIRK flux change, two-sided – cell-based, HEK293 M4/GIRK, thallium flux, BTC-AM, M4 allosteric agonist project, primary screen (AID 625);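 note: thallium influx through GIRK channels coupled to M4 in HEK293 cells with BTC-AM dye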
Settings: at 10 µM, actives lie on both sides
This listing pairs molecules with measured fluorescence slope.
Number, no unit, nothing else.

Answered examples (8):
Cc1ccccc1NC(=O)c1c(F)c(F)c(F)c(F)c1F: 0.00407
CC(=O)N1C(=O)c2cccc3cccc(c23)C(=O)N1C(C)=O: 0.00473
COc1ccc(C2C3=C(CC(C)(C)CC3=O)Oc3ncn4nc(-c5cccnc5)nc4c32)cc1 (centres undefined): 0.00713
Cc1nc(N2CCOCC2)[nH]c(=O)c1CCC(C)C: 0.0057
Cc1ccc(Cn2nnc3c(=O)[nH]c(C4CCN(C(=O)c5cccs5)CC4)nc32)cc1: 0.00572
CN(c1ccccc1)C(c1ccc(F)cc1)c1nnnn1CC1CCCO1 (centres undefined): 0.00686
Cc1ccccc1NC(=O)c1ccc(NC(=O)c2ccco2)cc1: 0.00647
CCOc1ccc(N(CC(=O)NCC2CCCO2)S(=O)(=O)c2ccc(OC)c(OC)c2)cc1 (centres undefined): 0.00351

Could you tell me which fluorescence slope is on file for CC(C(=O)N1CCCCC1)n1ncn2cccc2c1=O (centres undefined) ?
0.00463

Consider the molecule "CCn1c2ccccc2c2cc(NC(=O)Cc3ccc(S(=O)(=O)N4CCOCC4)s3)ccc21" and give its measured fluorescence slope.
0.00333

Can you share its fluorescence slope? I mean this molecule: "CCSc1ncc(C#N)c(=O)[nH]1"
0.00385

====

Items are presented alongside their recorded inhibition.
Assay overview: loss of swimming-algae plug formation – whole organism, Chlamydomonas reinhardtii, WT vs cilia-less mutant, absorbance, 96-well, primary screen (AID 463189);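 note: 0% = wild type cc124 cells in DMSO and 100% = ciliumless bld1 mutant cells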
Settings: Chlamydomonas reinhardtii gravitaxis, OD600 absorbance, 2 days; at 10 µM; stronger effect = higher value
Number only, in %; omit the unit.

Reference set (2 entries):
CC(C(=O)O)c1cccc(C(=O)c2ccccc2)c1 (stereo unspecified): -4.65
COC1(C2=NCCN2)COc2ccccc2O1 (stereo unspecified): 7.5

# next compound below
Find the recorded inhibition belonging to "COc1cccc(C(=O)OCCN(C)C(C)(C)C)c1" and report it.
31.9

====

Assay overview: loss of swimming-algae plug formation – whole organism, Chlamydomonas reinhardtii, WT vs cilia-less mutant, absorbance, 96-well, primary screen (AID 463189);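 note: 0% = wild type cc124 cells in DMSO and 100% = ciliumless bld1 mutant cells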
Settings: Chlamydomonas reinhardtii gravitaxis, OD600 absorbance, 2 days; at 10 µM; stronger effect = higher value
Experimental readout: inhibition (%)
Write the answer as a number in %, unit excluded.

Answered cases to consult:
NC(=O)CC[C@H](N)C(=O)O: -13.2
O=c1/c(=C/c2ccccn2)sc2n1CN(c1ccccc1)CN=2: 32
CCN1CCC[C@H]1CNC(=O)c1c(OC)ccc(I)c1O: 9.9
O=c1cc(N2CCOCC2)oc2c(-c3ccccc3)cccc12: 15.7
CN(C)c1cc2c(Nc3ccc4c(cnn4Cc4ccccc4)c3)ncnc2cn1: 2.93
CCC(CO)Nc1nc(NCc2ccccc2)c2ncn(C(C)C)c2n1 (stereo unspecified): -6.72
C=CCNc1nc(C2(C)CC3(CC(C)(C)OC3=O)C(=O)O2)cs1 (stereo unspecified): 6.21
O=Nc1ccc2oc(=O)ccc2c1: -9.21
CCN(CC)C(=S)SSC(=S)N(CC)CC: 12.2
CCN(CC)CCOCCOC(=O)C1(c2ccccc2)CCCC1: 5.28

Would you mind telling me what inhibition value was observed for "Cn1c(=O)c2c(ncn2C)n(C)c1=O" ?
1.74

Any idea what inhibition was measured for "OCCN1CCN(CC/C=C2/c3ccccc3Sc3ccc(C(F)(F)F)cc32)CC1" ?
15.6

meta.source: PubChem BioAssay
